Below is a list of entries, each paired with its recorded Pe PAMPA-BBB value.
Experiment: PAMPA-BBB assay
Conditions: Table 4
Where a name gives a salt, the structure may show the parent alone.
Experimental Endpoint: Pe PAMPA-BBB

molecule="Cc1cc(N)nc(CCc2c(F)c(F)cc(CC[C@@H]3CCCN3C)c2F)c1 [Compound 51]" experimental_endpoint="Pe PAMPA-BBB" recorded_result="20 ± 0.85 10^-6 cm/s"
molecule="Cc1cc(N)nc(CCc2c(F)c(F)cc(CC[C@H]3CCCN3C)c2F)c1 [Compound 52]" experimental_endpoint="Pe PAMPA-BBB" recorded_result="20.3 ± 0.16 10^-6 cm/s"
molecule="CNC/C=C/c1cc(F)cc(CCc2cc(C)cc(N)n2)c1 [Compound 48]" experimental_endpoint="Pe PAMPA-BBB" recorded_result="10.30 ± 0.02 10^-6 cm/s"
molecule="Cc1cc(N)nc(CCc2cc(CCN(C)C)cc(F)c2F)c1 [Compound 58, hydrochloride]" experimental_endpoint="Pe PAMPA-BBB" recorded_result="19.5 ± 1.4 10^-6 cm/s"
molecule="CNC/C=C\\c1cc(F)cc(CCc2cc(C)cc(N)n2)c1 [Compound 47]" experimental_endpoint="Pe PAMPA-BBB" recorded_result="10.92 ± 0.02 10^-6 cm/s"
molecule="CNCC#Cc1cc(F)c(F)c(CCc2cc(C)cc(N)n2)c1F [Compound 50]" experimental_endpoint="Pe PAMPA-BBB" recorded_result="19.10 ± 0.5 10^-6 cm/s"

* * *

Biological target: human nNOS (Homo sapiens)
Sequence (P29475 whole entry): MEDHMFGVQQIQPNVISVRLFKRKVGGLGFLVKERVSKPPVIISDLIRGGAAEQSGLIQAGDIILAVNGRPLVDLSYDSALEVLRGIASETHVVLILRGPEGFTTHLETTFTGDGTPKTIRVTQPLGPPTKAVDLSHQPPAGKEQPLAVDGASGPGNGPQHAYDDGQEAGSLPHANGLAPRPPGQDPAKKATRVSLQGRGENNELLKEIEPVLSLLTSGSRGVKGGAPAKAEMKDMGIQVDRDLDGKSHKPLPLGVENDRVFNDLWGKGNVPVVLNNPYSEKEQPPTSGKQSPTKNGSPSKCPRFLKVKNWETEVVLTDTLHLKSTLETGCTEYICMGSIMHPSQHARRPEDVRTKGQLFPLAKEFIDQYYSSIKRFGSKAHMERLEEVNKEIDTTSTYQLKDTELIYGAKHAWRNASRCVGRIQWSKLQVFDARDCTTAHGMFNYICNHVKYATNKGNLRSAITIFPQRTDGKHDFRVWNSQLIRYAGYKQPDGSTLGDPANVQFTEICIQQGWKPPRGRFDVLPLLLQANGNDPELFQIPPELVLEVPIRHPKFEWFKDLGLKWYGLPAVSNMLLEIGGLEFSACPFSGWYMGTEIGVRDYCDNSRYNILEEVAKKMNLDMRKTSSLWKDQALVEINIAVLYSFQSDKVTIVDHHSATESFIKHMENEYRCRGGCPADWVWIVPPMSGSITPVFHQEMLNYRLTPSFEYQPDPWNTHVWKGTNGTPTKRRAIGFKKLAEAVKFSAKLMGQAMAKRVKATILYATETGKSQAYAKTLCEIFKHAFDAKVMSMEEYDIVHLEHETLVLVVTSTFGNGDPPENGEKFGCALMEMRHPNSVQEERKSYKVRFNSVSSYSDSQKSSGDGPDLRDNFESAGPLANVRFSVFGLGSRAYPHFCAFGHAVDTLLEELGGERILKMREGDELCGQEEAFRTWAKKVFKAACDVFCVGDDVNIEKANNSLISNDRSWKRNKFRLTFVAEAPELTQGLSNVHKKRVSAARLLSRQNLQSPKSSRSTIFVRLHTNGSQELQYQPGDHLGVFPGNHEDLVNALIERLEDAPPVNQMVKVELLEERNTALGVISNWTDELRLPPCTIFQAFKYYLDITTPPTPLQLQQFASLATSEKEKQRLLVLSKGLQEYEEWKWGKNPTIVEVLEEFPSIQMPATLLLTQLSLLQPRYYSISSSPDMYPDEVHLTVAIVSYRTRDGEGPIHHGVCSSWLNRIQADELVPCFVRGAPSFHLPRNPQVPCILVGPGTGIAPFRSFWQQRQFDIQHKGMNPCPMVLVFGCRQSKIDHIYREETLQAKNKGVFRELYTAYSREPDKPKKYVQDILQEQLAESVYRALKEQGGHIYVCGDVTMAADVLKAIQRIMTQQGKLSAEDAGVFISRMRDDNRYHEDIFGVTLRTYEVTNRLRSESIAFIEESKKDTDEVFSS
Experiment: NO hemoglobin capture assay, human nNOS
Type: biochemical
Conditions: Table 4; human nNOS versus human eNOS
Experimental Endpoint: Selectivity Human n/e

molecular_string=CNCc1ccc2ncc(CCc3cc(C)cc(N)n3)cc2c1 experimental_endpoint="Selectivity Human n/e" recorded_result=614
molecular_string=CNC/C=C\c1cc(F)cc(CCc2cc(C)cc(N)n2)c1 experimental_endpoint="Selectivity Human n/e" recorded_result=320
molecular_string=CNC/C=C/c1cc(F)cc(CCc2cc(C)cc(N)n2)c1 experimental_endpoint="Selectivity Human n/e" recorded_result=721
molecular_string=Cc1cc(N)nc(CCc2c(F)c(F)cc(CC[C@H]3CCCN3C)c2F)c1 experimental_endpoint="Selectivity Human n/e" recorded_result=196
molecular_string=CNCC#Cc1cc(F)c(F)c(CCc2cc(C)cc(N)n2)c1F experimental_endpoint="Selectivity Human n/e" recorded_result=157
molecular_string=Cc1cc(N)nc(CCc2c(F)c(F)cc(CC[C@@H]3CCCN3C)c2F)c1 experimental_endpoint="Selectivity Human n/e" recorded_result=266

* * *

Biological target: murine macrophage iNOS (Mus musculus, UniProt P29477)
Assay: NO hemoglobin capture assay, murine iNOS
Format: biochemical
Conditions: Table 1; Ki from IC50 by Cheng-Prusoff; 10 μM L-Arg, pH 7.4, 37° C.
pKi: −log10 of the molar value.
Experimental Endpoint: pKi

molecular_string=Cc1cc(N)nc(CCc2cc(F)cc(CC[C@H]3CCCN3C)c2)c1 experimental_endpoint=pKi recorded_result=5.47
molecular_string=Cc1cc(N)nc(CCc2cc(F)cc(CCCN(C)C)c2F)c1 experimental_endpoint=pKi recorded_result=5.71
molecular_string=Cc1cc(N)nc(CCc2cc(F)cc(CC[C@@H]3CCCN3C)c2)c1 experimental_endpoint=pKi recorded_result=5.54
molecular_string=CNCC#Cc1cc(F)cc(CCc2cc(C)cc(N)n2)c1 experimental_endpoint=pKi recorded_result=5.12
molecular_string=Cc1cc(N)nc(CCc2cc(F)cc(CC[C@@H]3C[C@H](F)CN3C)c2)c1 experimental_endpoint=pKi recorded_result=5.30
molecular_string=CCO[C@@H]1C[C@H](CCc2cc(F)c(F)c(CCc3cc(C)cc(N)n3)c2)N(C)C1 experimental_endpoint=pKi recorded_result=5.35
